System: Vero E6 infected with SARS-CoV-2
Method description: inhibition of SARS-CoV-2 cytopathic effect; higher = more antiviral protection, active = above 15
Conditions: 8.33 nM; 48 h
Reported inhibition of SARS-CoV-2 cytopathic effect values follow for various compounds
Write the answer as a number in %, unit excluded.

Field request: inhibition of SARS-CoV-2 cytopathic effect | item: COc1cccc(-c2cc(NCc3ccc4c(c3)OCO4)nc(N)n2)c1
-1.05

* * *

Tested on: Vero E6 infected with SARS-CoV-2
Method description: inhibition of SARS-CoV-2 cytopathic effect; higher = more antiviral protection, active = above 15
Conditions: 10000 nM; 48 h
Measurement kind: inhibition of SARS-CoV-2 cytopathic effect (%)
Respond with the bare value in %.

Solved entries:
Compound	Target desc	Measured
CCOC(=O)c1ccc(OC(=O)CCCCCNC(=N)N)cc1 [gabexate]	Vero E6 infected with SARS-CoV-2	3.31
CCCN(CCC)C1Cc2cc(OC)c(OC)cc2C1	Vero E6 infected with SARS-CoV-2	-2.36
C=CC[N+]1([C@H]2C[C@H]3[C@@H]4CC[C@H]5C[C@H](O)[C@@H](N6CCOCC6)C[C@]5(C)[C@H]4CC[C@]3(C)[C@H]2OC(C)=O)CCCC1	Vero E6 infected with SARS-CoV-2	0.75
CC(C)(O)c1ccccc1CC[C@@H](SCC1(CC(=O)O)CC1)c1cccc(/C=C/c2ccc3ccc(Cl)cc3n2)c1	Vero E6 infected with SARS-CoV-2	-4.23
c1ccc(CCCN2CCN(CCOC(c3ccccc3)c3ccccc3)CC2)cc1	Vero E6 infected with SARS-CoV-2	-1.85
CCN(CC)CCOCCOC(=O)C(CC)(CC)c1ccccc1	Vero E6 infected with SARS-CoV-2	0.38

What reported inhibition of SARS-CoV-2 cytopathic effect corresponds to CCOC(=O)c1ccc(NC2CCCCC2)c(N)c1 on Vero E6 infected with SARS-CoV-2?
2.1

What measured inhibition of SARS-CoV-2 cytopathic effect is associated with CC1(C)C(=O)N(c2ccc(C#N)c(C(F)(F)F)c2)C(=O)N1CCCCO on Vero E6 infected with SARS-CoV-2?
1.21

Identify the measured inhibition of SARS-CoV-2 cytopathic effect of Cc1cc(C)c(N)c(C#Cc2cccc(F)c2)n1 for Vero E6 infected with SARS-CoV-2.
1.98

Notebook entry, Vero E6 infected with SARS-CoV-2 assay: inhibition of SARS-CoV-2 cytopathic effect of CCCCCCCCCCCCCCCCO = ?
-4.02

* * *

Measured inhibition of SARS-CoV-2 cytopathic effect accompanies every entry in the list below.
Test system: Vero E6 infected with SARS-CoV-2
Method description: inhibition of SARS-CoV-2 cytopathic effect; higher = more antiviral protection, active = above 15
Conditions: 100 nM; 48 h
Hi! Could you send only the number? It should be in %, unit omitted.

Illustrative cases are given below, each with its answer.
Compound	Target desc	Measured
CCOC(=O)[C@H](CCc1ccccc1)N[C@@H](C)C(=O)N1[C@H](C(=O)O)C[C@@H]2CCC[C@@H]21	Vero E6 infected with SARS-CoV-2	-0.53
CNC(=O)CN1CCC(Oc2cc3c(Nc4cccc(Cl)c4F)ncnc3cc2OC)CC1	Vero E6 infected with SARS-CoV-2	-6.91
CN1C(=O)N(C)C2C1N(C)C(=O)N2C (centres undefined)	Vero E6 infected with SARS-CoV-2	-3.06
O=C(NCCN1CCN(c2ncccn2)CC1)C12CC3CC(CC(C3)C1)C2	Vero E6 infected with SARS-CoV-2	-2.77

Using the record for CC(=O)N(CC(C)C(=O)O)c1c(I)cc(I)c(N)c1I (centres undefined) , report its inhibition of SARS-CoV-2 cytopathic effect.
1.81

Which inhibition of SARS-CoV-2 cytopathic effect reading was recorded for the compound Nc1[nH]cnc2ncnc1-2 ?
3.06

Fill blank: measured inhibition of SARS-CoV-2 cytopathic effect of the compound COC1(C2=NCCN2)COc2ccccc2O1 (centres undefined) is ____.
-0.68

For the compound shown here, CCCCCCCCCC(=O)OC1(c2ccc(Cl)cc2)CCN(CCCC(=O)c2ccc(F)cc2)CC1 [haloperidol-decanoate] , give the reported inhibition of SARS-CoV-2 cytopathic effect.
-2.1

Sample CCC(NC(C)C)C(O)c1ccc(O)c2[nH]c(=O)ccc12 (centres undefined) — what was its inhibition of SARS-CoV-2 cytopathic effect?
-2.76

Could you tell me which inhibition of SARS-CoV-2 cytopathic effect is on file for CC(C)NCC(O)COc1cccc2[nH]ccc12 (centres undefined) ?
0.95

# inhibition of SARS-CoV-2 cytopathic effect lookup, item C=C(NC(=O)C(=C)NC(=O)c1csc(C2=N[C@@H]3c4csc(n4)[C@H]4NC(=O)c5csc(n5)[C@H]([C@](C)(O)[C@@H](C)O)NC(=O)[C@H]5CSC(=N5)/C(=C/C)NC(=O)[C@H]([C@@H](C)O)NC(=O)c5csc(n5)[C@]3(CC2)NC(=O)[C@H](C)NC(=O)C(=C)NC(=O)[C@H](C)NC(=O)[C@H]([C@@H](C)CC)N[C@@H]2C=Cc3c([C@H](C)O)cc(nc3[C@H]2O)C(=O)O[C@@H]4C)n1)C(N)=O
-4.03

Value lookup for inhibition of SARS-CoV-2 cytopathic effect; key = CC(OC(=O)OC1CCCCC1)OC(=O)C1=C(CSc2nnnn2CCN(C)C)CS[C@@H]2[C@H](NC(=O)Cc3csc(N)n3)C(=O)N12 (some centres undefined)
0.74

* * *

Test system: Vero E6 infected with SARS-CoV-2
Method description: SARS-CoV-2 infection rate relative to infected DMSO; higher = more infection, active = 60 or less
Conditions: 24 h
Catalogue of SARS-CoV-2 infection rate values
The reply should contain only the number, in %.

Molecule	SARS-CoV-2 infection rate, %
CNC(=O)c1ccc(N2C(=S)N(c3cnc(C#N)c(C(F)(F)F)c3)C(=O)C23CCC3)cc1F [apalutamide] (10 µM)	109

# get_value(readout= SARS-CoV-2 infection rate, system= Vero E6 infected with SARS-CoV-2) for CCN(CC)CCOCCOC(=O)C(CC)(CC)c1ccccc1 [oxelaidin] (10 µM)
73.5

Hi! What's the reported SARS-CoV-2 infection rate for C#CCC(Cc1cnc2nc(N)nc(N)c2n1)c1ccc(C(=O)N[C@@H](CCC(=O)O)C(=O)O)cc1 (stereo partly drawn) [pralatrexate] (10 µM) on Vero E6 infected with SARS-CoV-2?
104

Please provide the recorded SARS-CoV-2 infection rate for Cc1cc(C(=O)O)sc1C(N)C(=O)O (stereo not drawn) (10 µM) , tested on Vero E6 infected with SARS-CoV-2.
95

# query: SARS-CoV-2 infection rate | item Cn1c2c(c3ccccc31)CCNCC2 (10 µM) | system: Vero E6 infected with SARS-CoV-2
103

Look up SARS-CoV-2 infection rate with Vero E6 infected with SARS-CoV-2 for this molecule: Cc1ccc(-c2c(-c3nn(C)c4ncnc(N5CC[C@H](N6CCCCC6)C5)c34)cnn2C)cc1 (10 µM)
100

Notebook entry, Vero E6 infected with SARS-CoV-2 assay: SARS-CoV-2 infection rate of CNC(=O)Oc1cccc2ccccc12 [carbaril] (10 µM) = ?
101

What measured SARS-CoV-2 infection rate is associated with Cn1cc(CCn2cnc(-c3cnn(C)c3)c2-c2ccc(C#N)cc2)cn1 (10 µM) on Vero E6 infected with SARS-CoV-2?
97

Query the reported SARS-CoV-2 infection rate for Vero E6 infected with SARS-CoV-2; item: CC(CN(C)C)CN1c2ccccc2CCc2ccccc21 (stereo not drawn) [trimipramine] (10 µM)
80.5

Lookup: SARS-CoV-2 infection rate / Vero E6 infected with SARS-CoV-2 / C(#Cc1nc2ncccc2nc1OCCN1CCCC1)c1ccccc1 (0.833333 µM)
86

Any idea what SARS-CoV-2 infection rate came out for CC1CCc2c(N3CCC(O)CC3)c(F)cc3c(=O)c(C(=O)O)cn1c23 (stereo not drawn) [nadifloxacin] (10 µM) on Vero E6 infected with SARS-CoV-2?
106

Entry c1ccc(C[C@H](c2ccccc2)N2CCCCC2)cc1 (racemic) [1-(1,2-diphenylethyl)piperidine-(+/-)] (10 µM) , system Vero E6 infected with SARS-CoV-2: what SARS-CoV-2 infection rate was measured?
69

Give SARS-CoV-2 infection rate (Vero E6 infected with SARS-CoV-2) of the following molecule: Cc1ncc[nH]1 [2-methylimidazole] (10 µM)
95

// fetch Vero E6 infected with SARS-CoV-2 SARS-CoV-2 infection rate for C=C[C@]1(C)CC[C@@H](C(=C)C)C[C@H]1C(=C)C [beta-elemene] (10 µM)
111

Which measured SARS-CoV-2 infection rate belongs to Cc1nn(C)c2c1C(c1ccc(C(F)(F)F)cc1)C(C#N)=C(N)O2 (stereo not drawn) (10 µM) , tested on Vero E6 infected with SARS-CoV-2?
98

Form field - read-out: SARS-CoV-2 infection rate; system: Vero E6 infected with SARS-CoV-2; submitted item: CCOc1ccc2nc3cc(N)ccc3c(N)c2c1 [ethacridine-lactate-monohydrate] (10 µM)
95.5

Form field: SARS-CoV-2 infection rate recorded for COc1ccc(NS(=O)(=O)c2sc3ccc(Cl)cc3c2C)cc1N1CCNCC1 (10 µM) with Vero E6 infected with SARS-CoV-2 (enter value)
108

Provide the documented SARS-CoV-2 infection rate with Vero E6 infected with SARS-CoV-2 as the system for O=c1cc(-c2ccc(O)cc2)oc2cc(O)cc(O)c12 [apigenin] (10 µM)
104

Cited source: the supplement of paper PMC13380429
